System: Fusarium oxysporum
assay: Antimicrobial activity against Fusarium oxysporum at 3 uM after 72 hrs by microtiter assay
Type: functional
# inhibition at 3 µM annotations
Number only, in %; omit the unit.

C/C=C1\NC(=O)[C@H](Cc2ccccc2)NC(=O)[C@@H](C(C)C)NC(=O)[C@@H]([C@@H](C)CC)NC(=O)[C@H](NC(=O)[C@H](NC(=O)[C@H](CCCN)NC(=O)[C@H]2CCCN2C(=O)[C@@H](NC(=O)[C@H](NC(=O)[C@H](NC(=O)[C@@H](NC(=O)CCCC(C)C)C(C)C)[C@H](C)OC(C)=O)C(C)C)C(C)C)[C@@H](C)CC)[C@@H](C)OC(=O)[C@H](C(C)C)NC1=O; 0

Proceed to the following item.
What does the record list as inhibition at 3 µM for C/C=C1\NC(=O)[C@H](Cc2ccccc2)NC(=O)[C@@H](C(C)C)NC(=O)[C@@H]([C@H](C)CC)NC(=O)[C@H](NC(=O)[C@H](NC(=O)[C@H](CCCN)NC(=O)[C@H]2CCCN2C(=O)[C@H](NC(=O)[C@@H](NC(=O)[C@@H](NC(=O)[C@H](NC(=O)CCCC(C)C)C(C)C)[C@@H](C)O)C(C)C)C(C)C)[C@H](C)CC)[C@H](C)OC(=O)[C@H](C(C)C)NC1=O [KAHALALIDE F] ? 0

###

Test system: Hs-578T
assay: Cytotoxicity against human HS578T cells
Assay type: functional
# TGI annotations

CC(=O)O[C@H]1C(=O)[C@@]2(C)[C@H]([C@H](OC(=O)c3ccccc3)[C@]3(O)C[C@H](OC(=O)[C@H](O)[C@@H](NC(=O)c4ccccc4)c4ccccc4)C(C)=C1C3(C)C)[C@]1(OC(C)=O)CO[C@@H]1C[C@@H]2O [PACLITAXEL]; 100 nM
C/C=C1\NC(=O)[C@H](Cc2ccccc2)NC(=O)[C@@H](C(C)C)NC(=O)[C@@H]([C@@H](C)CC)NC(=O)[C@H](NC(=O)[C@H](NC(=O)[C@H](CCCNC(=O)c2cc3ccc(N(CC)CC)cc3oc2=O)NC(=O)[C@H]2CCCN2C(=O)[C@H](NC(=O)[C@@H](NC(=O)[C@@H](NC(=O)[C@H](NC(=O)CCCC(C)C)C(C)C)[C@@H](C)O)C(C)C)C(C)C)[C@@H](C)CC)[C@@H](C)OC(=O)[C@H](C(C)C)NC1=O; > 100000 nM

Proceed to the following item.
What does the record list as TGI for C/C=C1\NC(=O)[C@H](Cc2ccccc2)NC(=O)[C@@H](C(C)C)NC(=O)[C@@H]([C@@H](C)CC)NC(=O)[C@H](NC(=O)[C@H](NC(=O)[C@H](CCCNCc2ccncc2)NC(=O)[C@H]2CCCN2C(=O)[C@H](NC(=O)[C@@H](NC(=O)[C@@H](NC(=O)[C@H](NC(=O)CCCC(C)C)C(C)C)[C@@H](C)O)C(C)C)C(C)C)[C@@H](C)CC)[C@@H](C)OC(=O)[C@H](C(C)C)NC1=O ? 444 nM

###

Test system: ACHN
assay: Cytotoxicity against human ACHN cells
Assay type: functional
Label y when GI50 is strictly below 1 µM; otherwise label n.

A selection of reference data follows.
C/C=C1\NC(=O)[C@H](Cc2ccccc2)NC(=O)[C@@H](C(C)C)NC(=O)[C@@H]([C@@H](C)CC)NC(=O)[C@H](NC(=O)[C@H](NC(=O)[C@H](CCCNC(=O)c2cc3ccc(N(CC)CC)cc3oc2=O)NC(=O)[C@H]2CCCN2C(=O)[C@H](NC(=O)[C@@H](NC(=O)[C@@H](NC(=O)[C@H](NC(=O)CCCC(C)C)C(C)C)[C@@H](C)O)C(C)C)C(C)C)[C@@H](C)CC)[C@@H](C)OC(=O)[C@H](C(C)C)NC1=O; n
CC(=O)O[C@H]1C(=O)[C@@]2(C)[C@H]([C@H](OC(=O)c3ccccc3)[C@]3(O)C[C@H](OC(=O)[C@H](O)[C@@H](NC(=O)c4ccccc4)c4ccccc4)C(C)=C1C3(C)C)[C@]1(OC(C)=O)CO[C@@H]1C[C@@H]2O [PACLITAXEL]; y

Lab log: compare recorded GI50 with 1 µM; is it strictly lower for C/C=C1\NC(=O)[C@H](Cc2ccccc2)NC(=O)[C@@H](C(C)C)NC(=O)[C@@H]([C@@H](C)CC)NC(=O)[C@H](NC(=O)[C@H](NC(=O)[C@H](CCCNCc2ccc(F)cc2)NC(=O)[C@H]2CCCN2C(=O)[C@H](NC(=O)[C@@H](NC(=O)[C@@H](NC(=O)[C@H](NC(=O)CCCC(C)C)C(C)C)[C@@H](C)O)C(C)C)C(C)C)[C@@H](C)CC)[C@@H](C)OC(=O)[C@H](C(C)C)NC1=O ? n

Lab log: compare recorded GI50 with 1 µM; is it strictly lower for C/C=C1\NC(=O)[C@H](Cc2ccccc2)NC(=O)[C@@H](C(C)C)NC(=O)[C@@H]([C@@H](C)CC)NC(=O)[C@H](NC(=O)[C@H](NC(=O)[C@H](CCCNCc2ccncc2)NC(=O)[C@H]2CCCN2C(=O)[C@H](NC(=O)[C@@H](NC(=O)[C@@H](NC(=O)[C@H](NC(=O)CCCC(C)C)C(C)C)[C@@H](C)O)C(C)C)C(C)C)[C@@H](C)CC)[C@@H](C)OC(=O)[C@H](C(C)C)NC1=O ? n

Lab log: compare recorded GI50 with 1 µM; is it strictly lower for C/C=C1\NC(=O)[C@H](Cc2ccccc2)NC(=O)[C@@H](C(C)C)NC(=O)[C@@H]([C@H](C)CC)NC(=O)[C@H](NC(=O)[C@H](NC(=O)[C@H](CCCN)NC(=O)[C@H]2CCCN2C(=O)[C@H](NC(=O)[C@@H](NC(=O)[C@@H](NC(=O)[C@H](NC(=O)CCCC(C)C)C(C)C)[C@@H](C)O)C(C)C)C(C)C)[C@H](C)CC)[C@H](C)OC(=O)[C@H](C(C)C)NC1=O [KAHALALIDE F] ? n

Lab log: compare recorded GI50 with 1 µM; is it strictly lower for C/C=C1\NC(=O)[C@H](Cc2ccccc2)NC(=O)[C@@H](C(C)C)NC(=O)[C@@H]([C@@H](C)CC)NC(=O)[C@H](NC(=O)[C@H](NC(=O)[C@H](CCCNCc2cccs2)NC(=O)[C@H]2CCCN2C(=O)[C@H](NC(=O)[C@@H](NC(=O)[C@@H](NC(=O)[C@H](NC(=O)CCCC(C)C)C(C)C)[C@@H](C)O)C(C)C)C(C)C)[C@@H](C)CC)[C@@H](C)OC(=O)[C@H](C(C)C)NC1=O ? n
